Data provenance is ChEMBL document CHEMBL1821630.

// values below are reported IC50
# TARGET SYSTEM: Nucleic Acid
# METHOD: Displacement of methyl green dye from DNA after 24 hrs by spectrophotometric analysis
# Assay type: nucleic-acid assay
Write the answer as a number in µg/mL, unit excluded.

Cc1nc2sc(S(N)(=O)=O)nn2c(=O)c1/N=N/c1ccccc1; 77
NS(=O)(=O)C1=NN2C(=NC(c3ccccc3)=CC2c2ccc(Cl)cc2)S1 (stereo not drawn); 40

Let us move to another entry and its IC50.
Form field - read-out: IC50; system: Nucleic Acid; submitted item: Cc1nc2sc(S(N)(=O)=O)nn2c(=O)c1/N=N/c1ccc([N+](=O)[O-])cc1
81
